Data origin, for the record: PubChem BioAssay (NCI)

Tested on: MOLT-4 leukemia
Experiment: NCI-60 one-dose screen, 48 h (100 = growth as untreated, 0 = no growth, -100 = all killed)
Settings: 10 µM unless noted
Compounds without any hit were thinned out: in the full panel of roughly 83,000, 20% have a hit.
# binarize growth: threshold 90% inclusive, high side 1 (yes), low side 0 (no)

Recorded results for 3 compounds are shown here.
{"compound": "COCC1OC2OC3C(COC)OC(OC4C(COC)OC(OC5C(COC)OC(OC6C(COC)OC(OC7C(COC)OC(OC8C(COC)OC(OC1C(O)C2O)C(O)C8O)C(O)C7O)C(O)C6O)C(O)C5O)C(O)C4O)C(O)C3O (stereo not drawn) (tested in a mixture with another compound)", "qualitativeLabel": "1 (yes)"}
{"compound": "Cc1c(C)c(N)c(C)c(C)c1N", "qualitativeLabel": "0 (no)"}
{"compound": "O=c1c2ccccc2nc(-c2ccccc2Cl)n1-c1nnc(C(F)(F)F)s1", "qualitativeLabel": "0 (no)"}

Problem: Quick check, growth >= 90%? [N-]=[N+]=CC(=O)CCC(=O)C=[N+]=[N-]
Solution: 0 (no)

Problem: Determine whether this compound has growth no lower than 90%: COC(=O)CCP(CCC(=O)OC)c1ccccc1
Solution: 1 (yes)

Problem: Could you please find out whether Cc1cc[c-]cc1.Fc1c[c-]c(-c2ccccn2)c(F)c1.N#CCC[PH+](CCC#N)c1ccccc1.[Pt+2] has growth that meets 90% or exceeds it?
Solution: 0 (no)

Problem: Given the entry Cc1ccc(P(=O)(O)O)cc1 , answer whether its growth meets or surpasses 90%.
Solution: 1 (yes)

Problem: API: above_or_equal(metric=growth, cutoff=90%) for item CC[C@H](CC[C@@H](C)[C@H]1CC[C@H]2[C@@H]3CC[C@H]4C[C@]5(CC[C@]4(C)[C@H]3CC[C@]12C)OO[C@](C)(C(F)(F)F)O5)C(C)C
Solution: 1 (yes)
